EC50 for assorted compounds
- test_system: NBTI-specific adenosine transport site (Homo sapiens, UniProt Q99808)
- Construct: incubated for 30 minutes with 0.5 mg neuronal membrane protein together with 0.5 nM [^3H]-NBTI
- Sequence (Q99808 1-456): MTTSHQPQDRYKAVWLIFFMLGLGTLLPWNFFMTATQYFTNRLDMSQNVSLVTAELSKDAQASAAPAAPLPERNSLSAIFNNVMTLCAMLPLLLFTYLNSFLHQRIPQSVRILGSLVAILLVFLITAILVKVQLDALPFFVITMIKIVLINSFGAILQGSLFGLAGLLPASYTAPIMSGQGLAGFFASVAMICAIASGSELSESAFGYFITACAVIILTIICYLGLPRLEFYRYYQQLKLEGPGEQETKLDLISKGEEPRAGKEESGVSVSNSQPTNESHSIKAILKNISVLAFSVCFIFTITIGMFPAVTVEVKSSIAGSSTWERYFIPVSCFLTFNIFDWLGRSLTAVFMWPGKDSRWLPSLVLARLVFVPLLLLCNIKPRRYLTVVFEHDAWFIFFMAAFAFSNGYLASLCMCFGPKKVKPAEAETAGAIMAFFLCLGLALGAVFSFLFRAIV
- test_protocol: [3H]-NBTI binding assay
- condition_notes: 50% displacement of bound [3H]-NBTI (0.5 nM); neuronal membrane protein, 30 minutes, pH 7.4, room temperature; read-out: ED50 (the source's name)
recorded_endpoint: EC50 (µM)

# compound, test_system, recorded_endpoint, result_value
records = [
    ("Nc1c(C(=O)Nc2ccc([N+](=O)[O-])cc2)ncn1[C@@H]1O[C@H](CO)[C@@H](O)[C@H]1O [Compound No. 58]", "NBTI-specific adenosine transport site (Homo sapiens, UniProt Q99808)", "EC50", 80),
    ("Nc1c(C(=O)NCc2ccc(Cl)cc2)ncn1[C@@H]1O[C@H](CO)[C@@H](O)[C@H]1O [Compound No. 29]", "NBTI-specific adenosine transport site (Homo sapiens, UniProt Q99808)", "EC50", 100),
    ("Nc1c(C(=O)Nc2ccc(I)cc2)ncn1[C@@H]1O[C@H](CO)[C@@H](O)[C@H]1O [Compound No. 57]", "NBTI-specific adenosine transport site (Homo sapiens, UniProt Q99808)", "EC50", 80),
]
